ASSAY SYSTEM: T1, compound 1 as a partial peptide of FGF-8 with the C terminal labeled with biotin (human, C terminal labeled with biotin)
T1 construct: Captured on Sensor Chip SA (35 RU) for BIAcore 2000; also called compound 1 labeled with biotin; FGF-8 peptide
T1 peptide: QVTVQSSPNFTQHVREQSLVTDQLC
PROTOCOL: BIAcore 2000, biotin-labeled compound 1 on SA chip (35 RU), antibody 16.7 µg/mL; dissociation hardly observed
READOUT TYPE: binding result

INSERT INTO results (binder, readout_type, value) VALUES
  ('anti-FGF-8 neutralizing CDR-grafted antibody HV0LV2-1/CHO (antibody, V domains shown, HV.0 + LV.2-1; CHO/DG44 cell-derived) VH: QVQLVQSGAEVKKPGASVKVSCKASGYTFTDYYLNWVRQAPGQGLEWMGEIDPGSDSIYYNENLEGRVTITADTSTSTAYMELSSLRSEDTAVYYCARYGYSRYDVRFVYWGQGTLVTVSS VL: DIVMTQSPLSLPVTPGEPASISCRSSQSLVHSNGRTYLEWYLQKPGQSPQVLIYKVSNRISGVPDRFSGSGSGTDFTLKISRVEAEDVGVYFCFQGSHVPYTFGQGTKVEIK', 'binding result', 'binds'),
  ('anti-FGF-8 neutralizing CDR-grafted antibody HV0LV6/CHO (antibody, V domains shown, HV.0 + LV.6; CHO/DG44 cell-derived; also called KM8034) VH: QVQLVQSGAEVKKPGASVKVSCKASGYTFTDYYLNWVRQAPGQGLEWMGEIDPGSDSIYYNENLEGRVTITADTSTSTAYMELSSLRSEDTAVYYCARYGYSRYDVRFVYWGQGTLVTVSS VL: DVVMTQSPLSLPVSLGEPASISCRSSQSLVHSNGRTYLEWYLQKPGQSPKVLIYKVSNRISGVPDRFSGSGSGTDFTLKISRVEAEDVGVYFCFQGSHVPYTFGQGTKVEIK', 'binding result', 'binds'),
  ('anti-FGF-8 neutralizing CDR-grafted antibody HV0LV2-2/CHO (antibody, V domains shown, HV.0 + LV.2-2; CHO/DG44 cell-derived) VH: QVQLVQSGAEVKKPGASVKVSCKASGYTFTDYYLNWVRQAPGQGLEWMGEIDPGSDSIYYNENLEGRVTITADTSTSTAYMELSSLRSEDTAVYYCARYGYSRYDVRFVYWGQGTLVTVSS VL: DVVMTQSPLSLPVTPGEPASISCRSSQSLVHSNGRTYLEWYLQKPGQSPQLLIYKVSNRISGVPDRFSGSGSGTDFTLKISRVEAEDVGVYFCFQGSHVPYTFGQGTKVEIK', 'binding result', 'binds');
